System: PBMCs
Test: IL-2 release in CD3/CD28 stimulated PBMC cells (assay c)
Type: cell-based
Conditions: Homo sapiens, read-out: IC50 Values for Inhibition of Cytokine Release, PBMCs IL-2
observed.property: pIC50
Answer as the number alone; pIC50 is minus log10 of concentration in mol/L.

Sample answers from the record:
                                   compound  target_system  observed_result
0  COc1c(NC(=O)Nc2ccc(Oc3ccnc(Nc4cnn(C)n4)n3)c3ccccc23)cc(C(C)(C)C)cc1P(C)(C)=O          PBMCs             6.21
1  COc1cc(Nc2cc(Oc3ccc(NC(=O)Nc4cc(C(C)(C)C)cc(P(C)(C)=O)c4OC)c4ccccc34)ccn2)cc(S(=O)(=O)N(C)C)c1          PBMCs             6.23
2  COc1cccc(Nc2cc(Oc3ccc(NC(=O)Nc4cc(C(C)(C)C)cc([S+](C)[O-])c4OC)c4ccccc34)ccn2)c1 (stereo not drawn)          PBMCs             6.73

# input Please report pIC50 for the following compound: COc1c(CC(N)=O)cc(C(C)(C)C)cc1NC(=O)Nc1ccc(Oc2ccnc(Nc3cc(C#N)cc(OCCN4CCOCC4)c3)c2)c2ccccc12
# output 7.04

# input Please report pIC50 for the following compound: COc1cc(CO)cc(Nc2cc(Oc3ccc(NC(=O)Nc4cc(C(C)(C)C)cc(CC(N)=O)c4OC)c4ccccc34)ccn2)c1
# output 7.03

# input Please report pIC50 for the following compound: COc1cc(Nc2cc(Oc3ccc(NC(=O)Nc4cc(C(C)(C)C)cc(C(=O)NCCN5CC[S+]([O-])CC5)c4OC)c4ccccc34)ccn2)cc(OC)c1
# output 7.20

====

Tested on: PBMCs
Assay: IL-2 release in CD3/CD28 stimulated PBMC cells (assay c)
Format: cell-based
Conditions: Homo sapiens, read-out: IC50 Values for Inhibition of Cytokine Release, PBMCs IL-2
Each record is given t if its reported IC50 is strictly below 200 nM. Records at or above 200 nM are given f.

Example entries begin here.
>>> df
                                   compound  assigned_category
0  COc1c(CNC(C)=O)cc(C(C)(C)C)cc1NC(=O)Nc1ccc(Oc2ccnc(NCc3ccccn3)c2)c2ccccc12                  f
1  COc1c(C[S+](C)[O-])cc(C(C)(C)C)cc1NC(=O)Nc1ccc(Oc2ccnc(Nc3ccccc3)c2)c2ccccc12 (stereo not drawn)                  t
2  COc1cc(Nc2cc(Oc3ccc(NC(=O)Nc4cc(C(C)(C)C)cc(CNC(C)=O)c4OC)c4ccccc34)ccn2)cc(OC)c1                  t
3  COc1c(CC(N)=O)cc(C(C)(C)C)cc1NC(=O)Nc1ccc(Oc2ccnc(Nc3cccc(OC(F)F)c3)c2)c2ccccc12 [38(s)]                  t

# input Confirm or reject: IC50 of COc1cc(Nc2cc(Oc3ccc(NC(=O)Nc4cc(C(C)(C)C)cc(CC(N)=O)c4OC)c4ccccc34)ccn2)ccc1C(=O)NCCN1CCOCC1 lies strictly below 200 nM
# output t

# input Confirm or reject: IC50 of COc1c(CNC(C)=O)cc(C(C)(C)C)cc1NC(=O)Nc1ccc(Oc2ccnc(Nc3cc(OCCN4CCOCC4)cc(C(F)(F)F)c3)c2)c2ccccc12 lies strictly below 200 nM
# output t
